Test system: U-937 cells (human lymphoma)
Test: 72 Hour IC50 cell death assay (sulforhodamine B)
Format: cell-based
Conditions: read-out: U-937 72 h IC50 (μM), Table 1, U-937 cells, 72 h
Field: label. Allowed values: satisfied (IC50 < 10 µM) or not satisfied (IC50 >= 10 µM).

1) C=CCc1cc(F)cc(/C=N/NC(=O)CN2CCN(C(=O)c3ccc(F)cc3)CC2)c1O [Compound 34] ... satisfied

Please state whether IC50 is below 10 µM for C=CCc1cc(F)cc(/C=N/NC(=O)CN2CCN(C(=O)c3ccccc3)CC2)c1O [Compound 30]
satisfied

Please state whether IC50 is below 10 µM for O=C(CN1CCN(Cc2ccc(C(F)(F)F)cc2)CC1)N/N=C/c1cc(F)ccc1O [Compound 26]
satisfied

Please state whether IC50 is below 10 µM for CCCc1cccc(/C=N/NC(=O)CN2CCN(Cc3ccccc3)CC2)c1O [Compound 10]
satisfied

Please state whether IC50 is below 10 µM for O=C(CN1CCN(C(=O)c2ccc(C(F)(F)F)cc2)CC1)N/N=C/c1cc(F)ccc1O [Compound 27]
satisfied

Please state whether IC50 is below 10 µM for CCCc1cc(F)cc(/C=N/NC(=O)CN2CCN(Cc3ccc(C#N)cc3)CC2)c1O [Compound 40]
not satisfied
